All figures here come from ChEMBL document CHEMBL2440092.

Assay read-out pKi; system under study: Aromatase (Homo sapiens, UniProt P11511).
pKi: −log10 of the molar value.
quantity: pKi

Reference set, count: 3
O[C@@H](c1ccc(F)cc1)[C@@H](Cn1ccnn1)c1ccccc1 ... 6.48
CC(=O)O[C@@H](c1ccc(F)cc1)[C@@H](Cn1ccnn1)c1ccccc1 ... 6.96
COCO[C@@H](c1ccc(F)cc1)[C@H](Cn1ccnn1)c1ccccc1 ... 6.80

I = COCO[C@@H](c1ccccc1)[C@@H](Cn1ccnn1)c1ccc(Br)cc1
II = COCO[C@@H](c1ccc(Br)cc1)[C@H](Cn1ccnn1)c1ccccc1
Between the entries labeled I and II , whose measured pKi is lower? Refer to your chosen entry by its label in the reply.
I
(I: 6.95, II: 7.15)

* * *

Sequence of the target: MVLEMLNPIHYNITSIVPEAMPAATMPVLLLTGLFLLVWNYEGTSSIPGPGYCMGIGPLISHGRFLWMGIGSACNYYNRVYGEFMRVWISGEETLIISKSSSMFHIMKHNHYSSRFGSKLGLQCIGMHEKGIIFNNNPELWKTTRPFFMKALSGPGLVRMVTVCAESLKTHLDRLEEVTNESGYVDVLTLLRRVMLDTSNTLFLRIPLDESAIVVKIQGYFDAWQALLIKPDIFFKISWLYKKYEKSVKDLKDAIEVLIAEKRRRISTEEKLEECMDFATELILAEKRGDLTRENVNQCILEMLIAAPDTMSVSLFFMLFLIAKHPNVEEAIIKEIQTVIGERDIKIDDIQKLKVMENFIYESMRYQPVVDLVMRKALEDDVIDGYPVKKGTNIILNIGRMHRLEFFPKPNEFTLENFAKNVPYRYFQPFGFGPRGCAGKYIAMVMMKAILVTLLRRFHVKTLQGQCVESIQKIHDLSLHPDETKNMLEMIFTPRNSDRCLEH
quantity: Ki (nM)

A = O[C@@H](c1ccccc1)[C@@H](Cn1ccnn1)c1ccc(Br)cc1
B = O[C@@H](c1ccc(F)cc1)[C@H](Cn1ccnn1)c1ccccc1
C = CC(=O)O[C@@H](c1ccc(Br)cc1)[C@@H](Cn1ccnn1)c1ccccc1
Rank the 3 compounds shown above by Ki, smallest number first. Give me the labels in the order the question wants.
C, B, A
